Entry source: PubChem BioAssay

# ASSAY INFO: JC-1 mitochondrial signal, unstimulated MM1S myeloma – cell-based, JC-1 fluorescence, 24 h, 100 nL compound, profiling panel (AID 1170); also: test concentration not given here
# CONDITION: MM1S mitochondrial potential, higher = more signal
Item-by-item account of z-score
Number only, please.

{"COMPOUND": "[N-]=[N+]=Nc1ccccc1C[C@]1(C(=O)O)COC(c2ccc(OCCCO)cc2)=N1", "z-score": 0.529}

Data request, read-out z-score, for COc1cccc(C)c1NC(=O)O[C@H]1[C@H](OC(=O)Nc2ccc3c(c2)OCO3)[C@@H](OC(=O)Nc2ccc3c(c2)OCO3)[C@@H](OC)O[C@@H]1CO
-0.0492

Same again, this time with CCCCCN1CC=CC23O[C@@H]4/C=C\CCCOC(=O)C4[C@H]2C(=O)N(C(C)CO)[C@@H]3C1=O (stereo partly specified)
-1.13

Same question, CC(C)NC(=O)[C@@]1(c2ccc([N+](=O)[O-])cc2)CC(=O)N(C2CCCCC2)[C@@H]1c1ccc(CO)cc1 this time
-0.123

Lookup CC(C)(C)OC(=O)CC[C@@]1(C(=O)NCC(O)CO)N=C(c2ccc(OCCCO)cc2)O[C@@H]1c1ccccc1CN=[N+]=[N-] (stereo partly specified)
1.12

What about this compound? C=CCN1C(=O)[C@]2(CCS(=O)(=O)c3ccccc3)N=C(c3ccc(OCCCO)cc3)O[C@@H]2c2ccccc21
0.615

Also CCOC(=O)C1=CC[C@@H](c2ccccc2)N(S(=O)(=O)c2ccc(C)cc2)[C@H]1c1ccccc1 , if possible.
-0.0355

Repeat with CC(C)NC(=O)[C@@]1(C)c2ccccc2C(=O)N(Cc2ccc(OC(F)(F)F)cc2)[C@H]1c1ccc(CO)cc1
-1.67

Try CCCC=C(CCC)[C@@H](NP(=O)(c1ccccc1)c1ccccc1)c1ccc(-c2ccccc2)cc1 next.
-2.36

Would you mind doing COc1cc2c(cc1O)C(C1CC1)N(Cc1cccc(OC(F)(F)F)c1)CC2 (stereo unspecified) as well?
-2.61

And CC(C)N1C(=O)C[C@@](C(=O)NC2CC2)(c2ccc([N+](=O)[O-])cc2)[C@H]1c1ccc(CO)cc1 ?
0.059

Also check Cc1ccccc1C(O)C1C=CC2C(=O)NC(=O)C2N1Nc1ccccn1 (stereo unspecified)
0.365

Please answer likewise for CC(C)C[C@@H]1NC(=O)[C@@H]2C[C@H](C(=O)NCCCCCCN)[C@H](c3cccc(OCCO)c3)N2C1=O
0.519

Please do the same for C=CC[C@]1(C(=O)N2CCOCC2)COC(c2ccc(OCCCO)cc2)=N1 as well.
-0.422

Same question for COCCCNC(=O)[C@@]1(CCC(=O)OC(C)(C)C)N=C(c2ccc(OCCCO)cc2)O[C@H]1c1ccccc1N=[N+]=[N-] please.
-0.386

Okay, and [N-]=[N+]=Nc1ccccc1C[C@]1(C(=O)NCCN2CCOCC2)COC(c2ccc(OCCCO)cc2)=N1 ?
-0.422

---

# MEASURED TARGET: Homeobox protein Hox-A13 (Mus musculus) (UniProt Q62424)
# Sequence (Q62424 whole entry, looked up): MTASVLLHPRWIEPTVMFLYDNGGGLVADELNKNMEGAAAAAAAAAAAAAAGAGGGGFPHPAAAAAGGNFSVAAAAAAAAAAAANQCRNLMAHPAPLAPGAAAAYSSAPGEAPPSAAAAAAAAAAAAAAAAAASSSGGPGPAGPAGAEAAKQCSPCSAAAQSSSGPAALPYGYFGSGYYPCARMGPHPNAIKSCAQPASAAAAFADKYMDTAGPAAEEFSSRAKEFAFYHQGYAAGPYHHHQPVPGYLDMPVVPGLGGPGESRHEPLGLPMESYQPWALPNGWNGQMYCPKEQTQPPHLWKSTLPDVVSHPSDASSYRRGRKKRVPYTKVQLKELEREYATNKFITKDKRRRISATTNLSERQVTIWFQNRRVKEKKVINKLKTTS
# ASSAY INFO: disruptors of Hoxa13 oligonucleotide interaction – biochemical, fluorescence polarization, labeled oligonucleotide, primary screen (AID 1185)
# CONDITION: Hoxa13:DNA binding, 15 min, higher = more signal, called active from +8 up or from −8 down
# z-score listing for each entry below
Keep it simple and answer with nothing but the number.

Example entries begin here.
{"COMPOUND": "COc1ccc([Si](C)(C)[C@@H]2[C@@H](CC(=O)N3Cc4ccccc4C[C@H]3CO)O[C@]3(C(=O)N(Cc4ccc(N5C(=O)c6cccc7cccc5c67)cc4)c4ccccc43)[C@H]2C)cc1", "RESULT": -1.98}
{"COMPOUND": "COc1ccc(CCNC(=O)[C@@]2(Sc3ccc(C)cc3)CC(=O)N(Cc3ccccc3C(F)(F)F)[C@@H]2c2ccc(CO)cc2I)cc1", "RESULT": -2.7}
{"COMPOUND": "CC1=C2[C@@H](CCc3ccccc3)OB(O)C[C@@H]2[C@@H]2C(=O)N(C)C(=O)[C@@H]2C1", "RESULT": -5.07}
{"COMPOUND": "Cc1ccc(S[C@]2(C(=O)NCc3ccccc3)CC(=O)N(C3CCCCC3)[C@@H]2c2ccc(CO)cc2I)cc1", "RESULT": -2.37}
{"COMPOUND": "[N-]=[N+]=Nc1ccccc1[C@@H]1OC(c2ccc(OCCCO)cc2)=N[C@]1(Cc1ccccc1)C(=O)N1CCCCC1", "RESULT": -4.3}
{"COMPOUND": "[N-]=[N+]=NCc1ccccc1C[C@@]1(C(N)=O)N=C(c2ccc(OCCCO)cc2)O[C@@H]1c1ccccc1", "RESULT": -5.03}
{"COMPOUND": "CCC#CCN(Cc1ccccc1Br)[C@H](/C=C/C1CC1)[C@@H](O)Cc1ccccc1", "RESULT": -0.634}
{"COMPOUND": "COc1ccc([Si](C)(C)[C@@H]2[C@@H](CC(=O)N(CCO)Cc3ccccc3)O[C@]3(C(=O)N(Cc4cccc(N5CCCCC5=O)c4)c4ccccc43)[C@H]2C)cc1", "RESULT": -1.13}
{"COMPOUND": "O=C1O[C@@H](c2ccccc2)[C@@H](c2ccccc2)N2[C@@H](c3ccc(OCCO)cc3)[C@]3(C(=O)Nc4ccc(C#CC5=CCCCC5)cc43)[C@@H](C(=O)NC[C@H](O)c3ccccc3)[C@H]12", "RESULT": 3.28}
{"COMPOUND": "COc1ccc(C#Cc2ccc3c(c2)[C@]2(C(=O)N3)[C@H](c3ccc(O)cc3)N3[C@H](c4ccccc4)[C@H](c4ccccc4)OC(=O)[C@H]3[C@@H]2C(=O)Nc2nc3ccccc3s2)cc1", "RESULT": -0.76}

Item under review: COCCOC(=O)N1C(=O)[C@@]2(c3ccccc31)[C@H](C(=O)NC[C@H](O)c1ccccc1)[C@H]1C(=O)O[C@H](c3ccccc3)[C@H](c3ccccc3)N1[C@@H]2c1ccc(O)cc1 . Reported z-score?
-3.48

Repeat for the following compound: CC(C)N1C(=O)C[C@@](C(=O)NC2CC2)(c2ccc([N+](=O)[O-])cc2)[C@H]1c1ccc(CO)cc1
-1.81

Same for O=C1OCCC=C[C@H]2OC34C=CCN(Cn5nnc6ccccc65)C(=O)[C@H]3N(CCCO)C(=O)[C@@H]4C12 (stereo not given in full)
-3.33

Param item: COCC(=C=CC[C@H](O)c1ccc(OCCO)cc1)CCO
-3.28

Try this compound next: CCCCCC1=C2CNC(C)(C(=O)OC)C=C2C(C)C1=O (stereo not given)
-5.3
